The measurements presented in this section are drawn from patent US20250270319A1.

# tested.system: human CD33 on primary human dendritic cells (human, UniProt P20138 18-364)
# Sequence (P20138 18-364): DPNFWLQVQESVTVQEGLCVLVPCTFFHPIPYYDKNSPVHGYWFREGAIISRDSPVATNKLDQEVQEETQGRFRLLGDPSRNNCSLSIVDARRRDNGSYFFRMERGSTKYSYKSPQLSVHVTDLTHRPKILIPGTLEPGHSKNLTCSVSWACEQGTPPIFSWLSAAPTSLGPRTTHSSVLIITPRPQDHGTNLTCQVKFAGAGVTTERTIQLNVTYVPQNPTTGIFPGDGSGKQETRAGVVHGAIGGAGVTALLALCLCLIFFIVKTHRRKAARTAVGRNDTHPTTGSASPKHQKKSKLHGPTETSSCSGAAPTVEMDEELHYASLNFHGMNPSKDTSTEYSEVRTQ
# test.protocol: cell-based or functional assay
parameter.measured: Receptor downregulation, (EC50) (pM)
Answers are plain numbers, in pM.

binder: anti-CD33 antibody 6C7H20 (antibody, V domains shown, VH/VL only) VH: EVQLVESGGGLVQPGGSLRLSCAGSGFTFSNYPMNWVRQAPGKGLEWVAEIRLKSNNYVTNYAASVKGRFTISRDDSKNSVYLQMNSLKTEDTGVYYCTRAGYYVPFAYWGQGTLVTVSS VL: QLVLTQSPSASASLGASVKLTCTLSSQHSTYTIEWYQQQPEKGPRYLMELKKEGSHSTGDGIPDRFSGSSSGAERYLTISSLQSEDEADYYCGVGDTIKEQFVYVFGGGTKLTVL
measure.unit: pM
readout.number: 40.8
--
binder: anti-CD33 antibody 6C7H27 (antibody, V domains shown, VH/VL only) VH: EVQLVESGGGLVQPGGSLRLSCAGSGFTFSDYTMNWVRQAPGKGLEWVAEIRLKSNNYVTNYAASVKGRFTISRDDSKNSVYLQMNSLKTEDTGVYYCTRAGYYVPFAYWGQGTLVTVSS VL: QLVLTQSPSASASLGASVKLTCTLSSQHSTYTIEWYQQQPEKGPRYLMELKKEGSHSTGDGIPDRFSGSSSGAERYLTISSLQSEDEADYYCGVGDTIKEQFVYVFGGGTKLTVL
measure.unit: pM
readout.number: 1520

Receptor downregulation, (EC50) (pM) reading for anti-CD33 antibody 6C7H28 (antibody, V domains shown, VH/VL only) VH: EVQLVESGGGLVQPGGSLRLSCAGSGFTFSDYSMNWVRQAPGKGLEWVAEIRLKSNNYVTNYAASVKGRFTISRDDSKNSVYLQMNSLKTEDTGVYYCTRAGYYVPFAYWGQGTLVTVSS VL: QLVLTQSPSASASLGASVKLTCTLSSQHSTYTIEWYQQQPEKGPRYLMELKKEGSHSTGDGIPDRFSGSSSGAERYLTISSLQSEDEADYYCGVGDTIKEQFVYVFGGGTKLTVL : 147
